# credit: patent US20240101548A1

Kindly supply the reported Cmax values for the records listed here.
# procedure_text: In-vivo pharmacokinetic test in mice
# measurement_parameters: mouse, po; BALB/c female mice, gavage 10 mg/kg, plasma
Answers are plain numbers, in µM.

Would you kindly share the measured Cmax for CCONC(=O)c1cnc(Nc2cc(C)nc(C)n2)cc1Nc1cccc(-c2ncccn2)c1OC [Example 212] ?
15

Cmax for CCONC(=O)c1cnc(Nc2cc(C)nc(C)n2)cc1Nc1cccc(-c2ncc(F)cn2)c1OC [Example 208] ?
16.4

Cmax for CCONC(=O)c1cnc(Nc2cc(C)nc(C)n2)cc1Nc1cc(F)cc(-c2ncccn2)c1OC [Example 215] ?
13.6

Okay, now this compound:
Which measured Cmax value corresponds to CCONC(=O)c1cnc(NC(=O)C2CC2)cc1Nc1cccc(-c2ncc(Cl)cn2)c1OC [Example 219] ?
10.3

---

# assayed_target: TYK2 JH2 domain (Homo sapiens (Human))
# Sequence (P29597 589-875): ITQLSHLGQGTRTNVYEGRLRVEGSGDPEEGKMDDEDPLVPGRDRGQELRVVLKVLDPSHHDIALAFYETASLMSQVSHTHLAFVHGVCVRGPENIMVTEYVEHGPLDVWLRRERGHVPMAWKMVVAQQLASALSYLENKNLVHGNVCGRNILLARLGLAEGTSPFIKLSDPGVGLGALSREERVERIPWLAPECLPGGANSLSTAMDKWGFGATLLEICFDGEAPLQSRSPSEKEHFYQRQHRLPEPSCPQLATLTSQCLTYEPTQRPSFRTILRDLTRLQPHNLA
# procedure_text: TYK2 JH2 domain FRET tracer assay
# measurement_parameters: FRET 665/615 nm; read-out: Inhibition activity IC50 on TYK2 JH2 domain
For each of the molecules below, state its pIC50.
Numbers only, as −log10 of the molar value.

Sample records with pIC50:
Quick check: pIC50 of CCONC(=O)c1cnc(Nc2ccnc(OC)n2)cc1Nc1cc(F)c(Cl)cc1N(C)S(C)(=O)=O [Example 200] ?
10.22

For the molecule CCONC(=O)c1cnc(Nc2cc(C)nc(C)n2)cc1Nc1cc(F)cc(-c2ncccn2)c1OC [Example 215] , what pIC50 is on record?
10.15

What does the record list as pIC50 for CCONC(=O)c1cnc(Nc2ccnc(C)n2)cc1Nc1ccc(C2CC2)cc1N(C)S(C)(=O)=O [Example 192] ?
10.10

// pIC50 lookup, key: CCONC(=O)c1cnc(Nc2cc(C)nc(C)n2)cc1Nc1ccc(OCC)cc1N(C)S(C)(=O)=O [Example 181]
10.10

// query pIC50 value for entry CCONC(=O)c1cnc(Nc2cc(C)nc(C)n2)cc1Nc1ccc(C)nc1N(C)S(C)(=O)=O [Example 186]
10.15

Tell me the measured pIC50 of CCONC(=O)c1cnc(Nc2cc(C)nc(C)n2)cc1Nc1ccc(C(C)C)cc1N(C)S(C)(=O)=O [Example 201] , please.
10.22

More entries:
What does the data say about its pIC50? Entry: CCONC(=O)c1cnc(Nc2cc(C)nc(C)n2)cc1Nc1cc(F)c(CC)cc1N(C)S(C)(=O)=O [Example 193]
10.22

---

# System: EPO-induced JAK2 signal pathway
# procedure_text: EPO-induced proliferation of UT-7 cells (JAK2 signal)
# Assay type: cell-based, human
# measurement_parameters: Homo sapiens, UT7; UT-7 cell proliferation, EPO 10 ng/mL, 72 hours; read-out: Inhibition activity IC50 on EPO-induced JAK2 signal pathway
test_readout: IC50

Example entries begin here.
Field request: IC50 | item: CONC(=O)c1cnc(Nc2cccc(F)n2)cc1Nc1cccnc1N(C)S(C)(=O)=O
> 10 µM

// query IC50 value for entry CCONC(=O)c1cnc(Nc2cc(C)nc(C)n2)cc1Nc1cc(F)cc(-c2ncc(F)cn2)c1OC
> 10 µM

Item CCONC(=O)c1cnc(Nc2nc(C)cs2)cc1Nc1ccc(C)cc1N(C)S(C)(=O)=O has what recorded IC50?
> 10 µM

# input compound: CCONC(=O)c1cnc(Nc2cc(C)nc(C)n2)cc1Nc1cccc(-c2ncc(C)cn2)c1OC ; wanted: its IC50
> 10 µM

Fill in the blank: the reported IC50 of CONC(=O)c1cnc(Nc2cccc(F)n2)cc1Nc1ccccc1P(C)(C)=O is ____.
> 10 µM

Please give IC50 for each item listed below.
1. CONC(=O)c1cnc(NC(=O)C2CC2)cc1Nc1cccn(-c2nccs2)c1=O
2. CCONC(=O)c1cnc(Nc2cc(C)nc(C)n2)cc1Nc1cc(Cl)c(C2CC2)cc1N(C)S(C)(=O)=O
3. CONC(=O)c1cnc(Nc2cccc(F)n2)cc1Nc1ccccc1OC1COC1
4. CCONC(=O)c1cnc(Nc2cc(C)nc(C)n2)cc1Nc1ccc(C)cc1N(C)S(=O)(=O)CC
5. CCONC(=O)c1nnc(Nc2cc(C)nc(C)n2)cc1Nc1cccc(-c2ncc(C)cn2)c1OC
6. CONC(=O)c1cnc(Nc2cccnc2OC)cc1Nc1ccccc1N(C)S(C)(=O)=O

1. > 10 µM
2. > 10 µM
3. > 10 µM
4. > 10 µM
5. > 10 µM
6. > 10 µM

# map each compound to its IC50
1. CONC(=O)c1cnc(NC(=O)[C@H]2CC2(C)C)cc1Nc1ccc(C2CC2)cc1N(C)S(C)(=O)=O
2. CCONC(=O)c1cnc(Nc2cc(C)c(F)cn2)cc1Nc1ccc(C2CC2)cc1N(C)S(C)(=O)=O
3. CONC(=O)c1cnc(NC(=O)C2CC2)cc1Nc1cccc(-c2ccn(C)n2)c1OCC(F)(F)F
4. CONC(=O)c1cnc(NC(=O)C2CC2)cc1Nc1cccc(-c2ncn(C)n2)c1OC
5. [2H]C([2H])([2H])Oc1c(Nc2cc(Nc3cc(C)nc(C)n3)ncc2C(=O)NOCC)cccc1-c1ncccn1

["> 10 µM", "> 10 µM", "> 10 µM", "> 10 µM", "> 10 µM"]
